src = paper PMC7470945

Give Kd for every item shown.
- target_or_system: SBDSpr (SBD of SprMcrA) (Streptomyces pristinaespiralis, UniProt A0A0M4DML1 1-165)
- assay_protocol: fluorescence polarization; FP: 20 mM Tris-HCl pH 8.0, 50 mM NaCl, 5% glycerol, 1 mM DTT, 5 nM probe, room temperature; EMSA: 20 mM Tris-HCl pH 8.0, 100 mM NaCl, 5% glycerol, room temperature, protein 4x DNA
- settings: protein: recombinant; tags: N-terminal 6xHis (pET28a); label: 5'-FAM on one strand (FP); blunt
Express the result in nM but write the number alone.

Measured Kd of PT-GATC-10 RP (hemi-PT) (dsDNA, RP phosphorothioate between G4 and A5 of strand 1) DNA 1: GATGATCCTA DNA 2: TAGGATCATC : 38

Kd measured on PT-GAAC-10 RP (hemi-PT) (dsDNA, RP phosphorothioate between G4 and A5 of strand 1) DNA 1: GGCGAACGTG DNA 2: CACGTTCGCC = 95
